From: patent US20250250357A1

# testedSystem: T1, human MSLN-FL-his protein (human, UniProt Q13421 296-580)
# T1 construct: made in HEK293E cells, purified on nickel column; also called hMSLN-FL-his; human MSLN full-length protein; not shown: His tag
# T1 sequence (Q13421 other isoform, or with tags, fused parts or gaps): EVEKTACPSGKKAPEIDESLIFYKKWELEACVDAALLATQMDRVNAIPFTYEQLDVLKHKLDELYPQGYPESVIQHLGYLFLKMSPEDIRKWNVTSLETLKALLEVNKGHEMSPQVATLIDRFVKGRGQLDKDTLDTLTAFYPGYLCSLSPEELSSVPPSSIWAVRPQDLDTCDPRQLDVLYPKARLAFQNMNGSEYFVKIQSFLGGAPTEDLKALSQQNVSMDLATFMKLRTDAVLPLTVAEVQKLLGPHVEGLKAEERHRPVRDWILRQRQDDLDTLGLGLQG
# testDetails: competitive ELISA; row F8-36.12; note: test concentration or dose not given here
observedProperty: competition rate (%)
Supply the numeric figure in %, leaving out any unit text.

Worked examples, 2 binders total:
binder="S009-F8-36.12 (antibody, human IgG1, kappa, V domains shown, human-murine chimeric antibody, human IgG1/kappa constant regions) VH: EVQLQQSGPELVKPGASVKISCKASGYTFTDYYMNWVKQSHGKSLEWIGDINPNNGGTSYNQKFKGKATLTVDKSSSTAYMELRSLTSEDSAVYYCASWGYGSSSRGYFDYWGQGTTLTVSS VL: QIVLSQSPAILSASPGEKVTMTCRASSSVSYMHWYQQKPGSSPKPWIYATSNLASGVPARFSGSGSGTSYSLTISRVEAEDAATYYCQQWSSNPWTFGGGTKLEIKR" observedproperty="competition rate" measureunit=% recordednumber=61.5
binder="S009-F8-33.12 (antibody, human IgG1, kappa, V domains shown, human-murine chimeric antibody, human IgG1/kappa constant regions) VH: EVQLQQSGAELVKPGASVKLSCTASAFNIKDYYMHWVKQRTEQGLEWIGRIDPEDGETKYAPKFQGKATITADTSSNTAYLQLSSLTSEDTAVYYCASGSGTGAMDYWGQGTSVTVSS VL: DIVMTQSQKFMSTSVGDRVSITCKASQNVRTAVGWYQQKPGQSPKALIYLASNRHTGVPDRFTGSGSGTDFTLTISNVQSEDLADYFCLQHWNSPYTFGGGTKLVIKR" observedproperty="competition rate" measureunit=% recordednumber=-134

Record summary for S009-F8-29.1 (antibody, human IgG1, kappa, V domains shown, human-murine chimeric antibody, human IgG1/kappa constant regions) VH: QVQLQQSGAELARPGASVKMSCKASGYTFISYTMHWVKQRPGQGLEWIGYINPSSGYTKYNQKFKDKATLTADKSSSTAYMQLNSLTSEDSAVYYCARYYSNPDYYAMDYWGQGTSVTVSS VL: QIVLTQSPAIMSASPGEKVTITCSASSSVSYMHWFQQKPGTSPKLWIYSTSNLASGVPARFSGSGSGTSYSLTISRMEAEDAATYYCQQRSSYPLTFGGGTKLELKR : reported competition rate = -146
